# TEST TARGET: N-type calcium channel α1B (Cav2.2), β3 and α2δ subunits (Homo sapiens, UniProt Q00975)
# Construct: expressed in transfected cells
# Sequence (Q00975 whole entry): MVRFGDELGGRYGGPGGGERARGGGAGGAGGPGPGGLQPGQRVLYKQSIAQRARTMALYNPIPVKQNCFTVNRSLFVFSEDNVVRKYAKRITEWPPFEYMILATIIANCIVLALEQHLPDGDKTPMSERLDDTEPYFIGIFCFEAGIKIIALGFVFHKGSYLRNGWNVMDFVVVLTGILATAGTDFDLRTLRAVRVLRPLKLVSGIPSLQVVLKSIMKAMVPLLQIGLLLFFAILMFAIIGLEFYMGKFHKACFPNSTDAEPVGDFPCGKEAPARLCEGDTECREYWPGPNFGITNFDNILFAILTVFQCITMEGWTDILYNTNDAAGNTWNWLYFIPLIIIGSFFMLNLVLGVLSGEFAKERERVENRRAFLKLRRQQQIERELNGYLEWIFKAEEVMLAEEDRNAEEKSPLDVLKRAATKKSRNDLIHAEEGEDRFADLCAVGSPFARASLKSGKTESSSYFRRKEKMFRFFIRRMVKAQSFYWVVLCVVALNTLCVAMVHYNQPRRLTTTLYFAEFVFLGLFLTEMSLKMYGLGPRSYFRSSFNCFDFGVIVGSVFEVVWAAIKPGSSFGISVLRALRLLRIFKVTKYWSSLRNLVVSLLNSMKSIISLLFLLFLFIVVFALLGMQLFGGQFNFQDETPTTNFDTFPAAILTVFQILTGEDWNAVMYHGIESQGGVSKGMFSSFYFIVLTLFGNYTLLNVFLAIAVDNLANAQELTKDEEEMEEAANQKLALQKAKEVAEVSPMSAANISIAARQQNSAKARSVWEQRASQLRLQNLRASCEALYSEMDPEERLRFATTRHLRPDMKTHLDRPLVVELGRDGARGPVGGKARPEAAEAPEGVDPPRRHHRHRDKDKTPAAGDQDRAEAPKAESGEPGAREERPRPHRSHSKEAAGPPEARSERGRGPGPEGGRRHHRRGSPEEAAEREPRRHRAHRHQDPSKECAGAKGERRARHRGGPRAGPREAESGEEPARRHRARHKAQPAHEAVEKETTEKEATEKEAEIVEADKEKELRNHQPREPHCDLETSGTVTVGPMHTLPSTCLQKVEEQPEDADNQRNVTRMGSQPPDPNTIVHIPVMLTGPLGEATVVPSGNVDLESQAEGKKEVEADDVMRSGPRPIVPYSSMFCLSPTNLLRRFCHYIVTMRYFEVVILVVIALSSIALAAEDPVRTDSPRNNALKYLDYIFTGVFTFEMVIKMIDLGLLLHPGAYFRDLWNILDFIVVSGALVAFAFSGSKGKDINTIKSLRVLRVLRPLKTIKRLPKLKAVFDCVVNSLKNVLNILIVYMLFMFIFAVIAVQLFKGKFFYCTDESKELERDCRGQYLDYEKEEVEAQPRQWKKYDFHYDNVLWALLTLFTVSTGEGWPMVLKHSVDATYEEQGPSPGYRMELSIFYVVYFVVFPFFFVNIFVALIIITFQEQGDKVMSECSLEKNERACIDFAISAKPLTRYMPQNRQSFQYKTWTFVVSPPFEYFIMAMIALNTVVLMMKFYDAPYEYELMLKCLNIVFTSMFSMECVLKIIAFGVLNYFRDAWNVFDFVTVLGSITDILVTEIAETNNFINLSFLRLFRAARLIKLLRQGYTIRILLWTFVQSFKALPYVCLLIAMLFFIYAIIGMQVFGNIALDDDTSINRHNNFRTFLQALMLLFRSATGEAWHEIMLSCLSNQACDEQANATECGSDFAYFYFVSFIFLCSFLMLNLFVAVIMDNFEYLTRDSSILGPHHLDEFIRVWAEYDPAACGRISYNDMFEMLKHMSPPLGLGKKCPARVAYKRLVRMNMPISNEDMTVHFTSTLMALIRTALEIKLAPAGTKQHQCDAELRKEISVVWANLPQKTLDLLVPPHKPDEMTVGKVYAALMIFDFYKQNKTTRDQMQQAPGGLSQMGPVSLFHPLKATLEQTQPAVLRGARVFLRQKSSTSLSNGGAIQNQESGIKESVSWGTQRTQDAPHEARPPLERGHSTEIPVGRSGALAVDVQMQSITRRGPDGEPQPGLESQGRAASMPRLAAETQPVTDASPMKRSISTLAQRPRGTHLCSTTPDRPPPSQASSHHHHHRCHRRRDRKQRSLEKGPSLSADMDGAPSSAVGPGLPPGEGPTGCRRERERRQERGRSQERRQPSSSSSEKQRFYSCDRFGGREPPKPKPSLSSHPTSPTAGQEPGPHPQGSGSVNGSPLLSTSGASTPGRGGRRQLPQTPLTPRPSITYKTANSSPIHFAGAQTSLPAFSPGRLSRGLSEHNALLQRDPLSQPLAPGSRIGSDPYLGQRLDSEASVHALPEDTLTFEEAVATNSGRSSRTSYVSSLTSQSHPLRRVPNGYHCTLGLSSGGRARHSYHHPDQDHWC
# Sequence (P54284 whole entry partner): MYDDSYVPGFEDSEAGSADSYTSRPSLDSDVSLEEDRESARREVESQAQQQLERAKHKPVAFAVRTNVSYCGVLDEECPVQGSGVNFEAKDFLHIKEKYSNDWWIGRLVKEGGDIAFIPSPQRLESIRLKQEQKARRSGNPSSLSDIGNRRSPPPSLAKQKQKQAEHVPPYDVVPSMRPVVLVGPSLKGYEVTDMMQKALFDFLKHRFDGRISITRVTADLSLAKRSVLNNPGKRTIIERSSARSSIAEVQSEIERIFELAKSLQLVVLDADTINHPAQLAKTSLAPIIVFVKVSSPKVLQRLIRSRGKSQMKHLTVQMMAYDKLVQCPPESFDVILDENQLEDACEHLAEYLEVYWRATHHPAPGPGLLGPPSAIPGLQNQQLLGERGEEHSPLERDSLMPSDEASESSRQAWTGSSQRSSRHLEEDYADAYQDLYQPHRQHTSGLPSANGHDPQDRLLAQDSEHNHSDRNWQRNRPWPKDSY
# Sequence (P54289 25-956 partner limits assumed): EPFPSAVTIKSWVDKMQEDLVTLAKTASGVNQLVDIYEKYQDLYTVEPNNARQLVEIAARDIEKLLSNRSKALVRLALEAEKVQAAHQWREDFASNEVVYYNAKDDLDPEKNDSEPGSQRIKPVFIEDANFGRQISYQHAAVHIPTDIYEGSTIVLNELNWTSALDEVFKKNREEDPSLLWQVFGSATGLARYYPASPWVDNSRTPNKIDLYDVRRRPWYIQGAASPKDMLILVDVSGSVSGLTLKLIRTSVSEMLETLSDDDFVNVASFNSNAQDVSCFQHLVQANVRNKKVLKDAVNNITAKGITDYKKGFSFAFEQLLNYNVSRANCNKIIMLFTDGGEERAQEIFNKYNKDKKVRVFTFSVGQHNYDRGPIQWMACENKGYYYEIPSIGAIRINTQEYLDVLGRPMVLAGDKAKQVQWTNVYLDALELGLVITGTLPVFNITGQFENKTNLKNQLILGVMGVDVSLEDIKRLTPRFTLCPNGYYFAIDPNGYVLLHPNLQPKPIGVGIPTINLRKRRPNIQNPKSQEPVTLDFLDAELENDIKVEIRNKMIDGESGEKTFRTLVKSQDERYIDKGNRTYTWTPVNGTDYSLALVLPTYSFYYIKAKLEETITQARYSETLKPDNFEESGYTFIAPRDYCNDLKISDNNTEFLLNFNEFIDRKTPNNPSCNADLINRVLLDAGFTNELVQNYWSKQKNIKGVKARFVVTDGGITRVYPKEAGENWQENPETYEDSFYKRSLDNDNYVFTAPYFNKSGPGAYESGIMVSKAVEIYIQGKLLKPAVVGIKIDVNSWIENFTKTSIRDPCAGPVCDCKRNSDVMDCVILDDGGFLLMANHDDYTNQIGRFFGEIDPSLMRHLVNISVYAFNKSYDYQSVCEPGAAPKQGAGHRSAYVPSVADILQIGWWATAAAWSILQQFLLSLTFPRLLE
# Sequence (P54289 957-1103 partner limits assumed): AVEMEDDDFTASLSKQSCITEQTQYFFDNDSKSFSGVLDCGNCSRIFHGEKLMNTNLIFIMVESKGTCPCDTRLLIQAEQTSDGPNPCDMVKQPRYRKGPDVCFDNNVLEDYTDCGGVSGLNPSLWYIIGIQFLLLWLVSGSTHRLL
# ASSAY TEXT: Functional assay, antagonism of N-type calcium channel (FDSS calcium mobilization response to KCl depolarization)
# Type: cell-based
# ASSAY CONDITIONS: 0.33 μM compound; FDSS, 50 mM KCl
Catalogue of compounds with associated inhibition at 0.33 µM
ASSAY READOUT: inhibition at 0.33 µM (%)

INSERT INTO results (mol, assay_readout, measured) VALUES
  ('CN(C)S(=O)(=O)N1Cc2nn(-c3ccccc3OCC(F)(F)F)c(-c3ccc(Cl)cc3)c2C1', 'inhibition at 0.33 µM', 80),
  ('COc1cc(F)ccc1-n1nc2c(c1-c1ccc(Cl)cc1)CN(S(C)(=O)=O)C2', 'inhibition at 0.33 µM', 74),
  ('CC1CCN(S(=O)(=O)N2Cc3nn(-c4cccc5c4OCC5)c(-c4ccc(Cl)cc4)c3C2)CC1', 'inhibition at 0.33 µM', 96),
  ('CN(C)S(=O)(=O)N1Cc2nn(-c3ccccc3OCC(F)F)c(-c3ccc(Cl)cc3)c2C1', 'inhibition at 0.33 µM', 79);

----------
# TEST TARGET: N-type calcium channel α1B (Cav2.2), β3 and α2δ subunits (Homo sapiens, UniProt Q00975)
# ASSAY TEXT: Functional assay, antagonism of N-type calcium channel (FDSS calcium mobilization response to KCl depolarization)
# ASSAY CONDITIONS: HEK stable cell line; 50 mM KCl depolarization; six-point concentration-response
Labelling field: enter true (1) if recorded IC50 is less than 40 nM. Enter false (0) if it equals or exceeds that cut-off.

INSERT INTO results (mol, answer_label) VALUES
  ('COc1ccccc1-n1nc2c(c1-c1cnc3ccccc3c1)CN(S(=O)(=O)C(C)C)C2', 'false (0)'),
  ('COc1cc(F)ccc1-n1nc2c(c1-c1ccc(Cl)cc1)CN(S(=O)(=O)C1CCCCC1)C2', 'false (0)'),
  ('COc1ccc(-c2c3c(nn2-c2ccccc2OC)CN(S(=O)(=O)C(C)C)C3)cn1', 'false (0)'),
  ('CN(C)S(=O)(=O)N1Cc2nn(-c3ccccc3OCC(F)(F)F)c(-c3ccc(Cl)cc3)c2C1', 'false (0)'),
  ('CCOc1ccccc1-n1nc2c(c1-c1ccc(Cl)cc1)CN(S(=O)(=O)C1CCCCC1)C2', 'true (1)'),
  ('CC(C)S(=O)(=O)N1Cc2nn(-c3ccccc3N(C)C)c(-c3ccc(Cl)cc3)c2C1', 'true (1)'),
  ('COc1ccccc1-n1nc2c(c1-c1ccc(Cl)cc1)CN(S(C)(=O)=O)C2', 'true (1)'),
  ('COc1ccccc1-n1nc2c(c1-c1ccc(Cl)cc1)CN(S(=O)(=O)N(C)C)C2', 'true (1)'),
  ('CCN(CC)S(=O)(=O)N1Cc2nn(-c3ccccc3OC)c(-c3ccc(Cl)cc3)c2C1', 'true (1)'),
  ('COC(=O)C1CCN(S(=O)(=O)N2Cc3nn(-c4ccccc4OC)c(-c4ccc(Cl)cc4)c3C2)CC1', 'true (1)'),
  ('CCOc1ccccc1-n1nc2c(c1-c1ccc(Cl)cc1)CN(S(=O)(=O)N(C)C)C2', 'true (1)'),
  ('CCc1ccccc1-n1nc2c(c1-c1ccc(Cl)cc1)CN(C(=O)c1ccncc1)C2', 'false (0)'),
  ('CN(C)S(=O)(=O)N1Cc2nn(-c3ccccc3OCC(F)F)c(-c3ccc(Cl)cc3)c2C1', 'false (0)'),
  ('FC(F)(F)Oc1ccccc1-n1nc2c(c1-c1ccc(Cl)cc1)CN(c1ccc3nc(Cl)ccc3c1)C2', 'false (0)'),
  ('CCc1ccccc1-n1nc2c(c1-c1ccc(Cl)cc1)CN(C(=O)c1ccco1)C2', 'false (0)'),
  ('Cc1ccc(S(=O)(=O)N2Cc3nn(-c4ccccc4C(F)(F)F)c(-c4ccc(Cl)cc4)c3C2)cc1', 'false (0)'),
  ('COc1ccccc1-n1nc2c(c1-c1ccc(Cl)cc1)CN(S(=O)(=O)N1CCCCC1)C2', 'true (1)'),
  ('CC1CCN(S(=O)(=O)N2Cc3nn(-c4cccc5c4OCC5)c(-c4ccc(Cl)cc4)c3C2)CC1', 'true (1)'),
  ('COc1ccccc1-n1nc2c(c1-c1ccc(Cl)cc1)CN(S(=O)(=O)CCNS(=O)(=O)N(C)C)C2', 'true (1)'),
  ('CC(C)CS(=O)(=O)N1Cc2nn(-c3cccc4c3OCC4)c(-c3ccc(Cl)cc3)c2C1', 'true (1)'),
  ('CCOc1ccccc1-n1nc2c(c1-c1ccc(Cl)cc1)CN(S(=O)(=O)Cc1ccccc1)C2', 'true (1)');
